Data origin, for the record: paper PMC12212125

B1: Arabidopsis thaliana cryptochrome 2 (CRY2, UniProt Q96524), residues 1-535 fused after the Gal4 DNA-binding domain (Gal4BD-CRY2(535)); mutagenized window 321-412, Q96524 (parent)
chain: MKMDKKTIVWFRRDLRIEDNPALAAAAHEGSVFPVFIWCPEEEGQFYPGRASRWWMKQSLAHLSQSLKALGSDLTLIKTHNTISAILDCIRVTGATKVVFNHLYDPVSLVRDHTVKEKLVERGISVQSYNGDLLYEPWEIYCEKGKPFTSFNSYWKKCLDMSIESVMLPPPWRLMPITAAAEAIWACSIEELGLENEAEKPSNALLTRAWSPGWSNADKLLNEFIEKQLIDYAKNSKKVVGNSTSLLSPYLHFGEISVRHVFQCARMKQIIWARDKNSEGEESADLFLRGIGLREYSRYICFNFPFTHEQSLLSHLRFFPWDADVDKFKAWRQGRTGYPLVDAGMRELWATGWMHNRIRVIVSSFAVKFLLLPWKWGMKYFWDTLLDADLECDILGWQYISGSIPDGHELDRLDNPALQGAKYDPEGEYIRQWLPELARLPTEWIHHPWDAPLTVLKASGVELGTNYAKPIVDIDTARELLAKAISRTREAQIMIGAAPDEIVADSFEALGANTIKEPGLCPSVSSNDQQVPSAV

Variants of: B1
Experiment: yeast two-hybrid growth selection (MaV203; Gal4BD-CRY2(1-535) library x Gal4AD-CIB1; URA3 reporter on SC -Trp/-Leu/-Ura) in the dark, deep sequencing before and after selection, Enrich2 scoring; three independent screens (one at 48 h, two …)
Conditions: with CIB1 (CRYPTOCHROME-INTERACTING BASIC-HELIX-LOOP-HELIX 1), dark (no blue light), screens 1, 3 and 4, Svar > 0 = enriched under dark selection for CRY2-CIB1 two-hybrid growth (URA3 reporter), < 0 = depleted, relative to wild type (whose scores are 0). 'The Enrich2 software calculates, parent: 0, not an affinity, scale: Enrich2 score, numbering: uniprot, sequence starts at 1
MEASURE NAME: enrichment
Just the number, please.

A330T    -0.56
F369T    -2.07
I400L    -0.846
V362A    -0.304
D324A    0.0228
K379Q    -0.304

enrichment reading for D342G : -1.84

The value of enrichment measured for the variant F381S turned out to be -1.2

Recorded result, N356T , enrichment: 0.0153

variant K329R , enrichment observed: 0.366
